- Tested on: Enterobacter cloacae (ECL) isolates
- assay.details: MIC of compounds alone and combined with antibacterials, broth microdilution (CLSI)
- Format: cell-based
- test.context: ECL NEM146383; AF1 @ 4 μg/mL
For each record, write down the corresponding MIC ATB in combination.
Note: state the figure and append the unit.

Task item: # lookup: MIC ATB in combination of C=CC1=C(C(=O)O)N2C(=O)[C@@H](NC(=O)/C(=N\OCC(=O)O)c3csc(N)n3)[C@H]2SC1 [FIX, Cefixime]
Reply: 32 µg/mL

Task item: # lookup: MIC ATB in combination of CC(C)(O/N=C(\C(=O)N[C@@H]1C(=O)N2C(C(=O)[O-])=C(C[n+]3ccccc3)CS[C@H]12)c1csc(N)n1)C(=O)O [CAZ, Ceftazidime]
Reply: 2 µg/mL

Task item: # lookup: MIC ATB in combination of COCC1=C(C(=O)O)N2C(=O)[C@@H](NC(=O)/C(=N\OC)c3csc(N)n3)[C@H]2SC1 [POD, Cefpodoxime]
Reply: 16 µg/mL

Task item: # lookup: MIC ATB in combination of C=CC1=C(C(=O)O)N2C(=O)[C@@H](NC(=O)/C(=N\O)c3csc(N)n3)[C@H]2SC1 [CDR, Cefdinir]
Reply: 32 µg/mL

---

- System: Escherichia coli (ECO) isolates
- assay.details: MIC of compounds alone and combined with antibacterials, broth microdilution (CLSI)
- Type: cell-based
- test.context: ECO RGN238; AF1 @ 4 μg/mL
measured.endpoint: MIC ATB in combination

Look over these answered cases.
- given.smiles: "C=CC1=C(C(=O)O)N2C(=O)[C@@H](NC(=O)/C(=N\\OCC(=O)O)c3csc(N)n3)[C@H]2SC1"
  MIC ATB in combination: "<=0.25 μg/mL"
- given.smiles: "C=CC1=C(C(=O)O)N2C(=O)[C@@H](NC(=O)/C(=N\\O)c3csc(N)n3)[C@H]2SC1"
  MIC ATB in combination: "<=0.25 μg/mL"
- given.smiles: "COCC1=C(C(=O)O)N2C(=O)[C@@H](NC(=O)/C(=N\\OC)c3csc(N)n3)[C@H]2SC1"
  MIC ATB in combination: "<=0.25 μg/mL"
- given.smiles: "CC1(C)S[C@@H]2[C@H](NC(=O)[C@H](N)c3ccc(O)cc3)C(=O)N2[C@H]1C(=O)O"
  MIC ATB in combination: "256 µg/mL"

Task item: Give MIC ATB in combination (Escherichia coli (ECO) isolates) of the following molecule: `CO/N=C(\C(=O)N[C@@H]1C(=O)N2C(C(=O)O)=C(COC(N)=O)CS[C@H]12)c1ccco1`
Reply: 8 µg/mL

Task item: Give MIC ATB in combination (Escherichia coli (ECO) isolates) of the following molecule: `CC(C)(O/N=C(\C(=O)N[C@@H]1C(=O)N2C(C(=O)[O-])=C(C[n+]3ccccc3)CS[C@H]12)c1csc(N)n1)C(=O)O`
Reply: <=0.25 μg/mL

---

For each record, write down the corresponding MIC ATB in combination.
- Tested on: Enterobacter cloacae (ECL) isolates
- assay.details: MIC of compounds alone and combined with antibacterials, broth microdilution (CLSI)
- Assay type: cell-based
- test.context: ECL UFR85; AF1 @ 4 μg/mL
Note: state the figure and append the unit.

Task item: # lookup: MIC ATB in combination of `C=CC1=C(C(=O)O)N2C(=O)[C@@H](NC(=O)/C(=N\OCC(=O)O)c3csc(N)n3)[C@H]2SC1`
Reply: 8 mg/L

Task item: # lookup: MIC ATB in combination of `CC(C)(O/N=C(\C(=O)N[C@@H]1C(=O)N2C(C(=O)[O-])=C(C[n+]3ccccc3)CS[C@H]12)c1csc(N)n1)C(=O)O`
Reply: 1 mg/L

Task item: # lookup: MIC ATB in combination of `C=CC1=C(C(=O)O)N2C(=O)[C@@H](NC(=O)/C(=N\O)c3csc(N)n3)[C@H]2SC1`
Reply: 8 mg/L

Task item: # lookup: MIC ATB in combination of `COCC1=C(C(=O)O)N2C(=O)[C@@H](NC(=O)/C(=N\OC)c3csc(N)n3)[C@H]2SC1`
Reply: 4 mg/L

Task item: # lookup: MIC ATB in combination of `CC1(C)S[C@@H]2[C@H](NC(=O)[C@H](N)c3ccc(O)cc3)C(=O)N2[C@H]1C(=O)O`
Reply: 256 mg/L
